Quick reference: shrunken log2 fold change of the listed items.
System: Escherichia coli TOP10
method-description: shrunken log2 fold change of peptide-encoding DNA abundance (4.5 h post-induction vs induction); higher = less antimicrobial activity (less host growth inhibition)
details: time post-induction: 4.5 h; library: site-saturation at positions 5, 18, 19, 20
attribute-measured: shrunken log2 fold change

- RRIRFRPPRLPRPRPRPFYPPRP: -0.824
- RRIRNRPPRLPRPRPRPWDPPRP: -0.00879
- RRIRYRPPRLPRPRPRPLQCPRP: -0.344
- RRIRTRPPRLPRPRPRPDRSPRP: -0.287

----------
Quick reference: shrunken log2 fold change of the listed items.
Test system: Escherichia coli TOP10
method-description: shrunken log2 fold change of peptide-encoding DNA abundance (4.5 h post-induction vs induction); higher = less antimicrobial activity (less host growth inhibition)
details: time post-induction: 4.5 h; library: site-saturation at positions 5, 18, 19, 20
attribute-measured: shrunken log2 fold change

• RRIRHRPPRLPRPRPRPKEKPRP = 0.0444
• RRIRDRPPRLPRPRPRPAFAPRP = 0.928
• RRIRARPPRLPRPRPRPSPVPRP = 0.355
• RRIRDRPPRLPRPRPRPCNKPRP = -0.764
• RRIRTRPPRLPRPRPRPYWKPRP = -0.000823
• RRIRPRPPRLPRPRPRPCPPPRP = -0.0276
• RRIRFRPPRLPRPRPRPGFCPRP = -0.179
• RRIRVRPPRLPRPRPRPGDCPRP = 0.404
• RRIRKRPPRLPRPRPRPIYRPRP = -0.0881
• RRIRRRPPRLPRPRPRPPGPPRP = 0.8
• RRIRHRPPRLPRPRPRPKVIPRP = 0.109
• RRIRSRPPRLPRPRPRPRFQPRP = 0.233
• RRIRPRPPRLPRPRPRPPTHPRP = 0.317

----------
Quick reference: shrunken log2 fold change of the listed items.
Tested on: Escherichia coli TOP10
method-description: shrunken log2 fold change of peptide-encoding DNA abundance (4.5 h post-induction vs induction); higher = less antimicrobial activity (less host growth inhibition)
details: time post-induction: 4.5 h; library: site-saturation at positions 5, 18, 19, 20
attribute-measured: shrunken log2 fold change

• RRIRARPPRLPRPRPRPLCLPRP = 0.132
• RRIRRRPPRLPRPRPRPCFIPRP = -0.127
• RRIRDRPPRLPRPRPRPRRVPRP = 0.427

----------
System: Escherichia coli TOP10;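 further: peptides expressed intracellularly from a pBAD plasmid library in pooled LB shake-flask culture, induced with 0.3% L-arabinose, DNA abundance read by NGS, three biological replicates, DESeq2 with apeglm shrinkage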
method-description: shrunken log2 fold change of peptide-encoding DNA abundance (4.5 h post-induction vs induction); higher = less antimicrobial activity (less host growth inhibition)
details: time post-induction: 4.5 h; library: site-saturation at positions 5, 18, 19, 20
attribute-measured: shrunken log2 fold change

- RRIRVRPPRLPRPRPRPIEMPRP: -0.267
- RRIRPRPPRLPRPRPRPNEYPRP: -0.783
- RRIRGRPPRLPRPRPRPKWIPRP: 0.118
- RRIRSRPPRLPRPRPRPQMQPRP: 0.00783
- RRIRDRPPRLPRPRPRPWVAPRP: -0.0114
- RRIRMRPPRLPRPRPRPISNPRP: -0.0517
- RRIRNRPPRLPRPRPRPIGNPRP: 0.0106
- RRIRGRPPRLPRPRPRPFDQPRP: 0.2
- RRIRDRPPRLPRPRPRPTQGPRP: 0.797
- RRIRLRPPRLPRPRPRPPNYPRP: -0.23
